Reported activity change, negative = inhibition is given for each of the following compounds.
- Protocol Text: Primary qHTS to identify inhibitors of SARS-CoV-2 cell entry (AID 1645846); note: nearly all actives have a fitted effect of over 45% in size
- Condition Details: SARS-CoV-2 pseudovirus cell entry assay, luminescence; at 57.1 µM (top of the series) unless noted
Results filed as inconclusive are left out.
Field: numeric (%). Do not append units.

| Compound | activity change, negative = inhibition [%] |
| --- | --- |
| CCCCOc1nc(N)c2c(n1)N(Cc1cccc(CN3CCCC3)c1)CC(=O)N2 | -22.5 |

Sure, the documented activity change, negative = inhibition for `COc1ccc([C@@H]2CC(=O)c3c(O)cc(O[C@@H]4O[C@H](CO[C@@H]5O[C@@H](C)[C@H](O)[C@@H](O)[C@@H]5O)[C@@H](O)[C@H](O)[C@@H]4O)cc3O2)cc1O` is -5.46

Sure, the documented activity change, negative = inhibition for `O=S(=O)(c1cccc2c(I)cccc12)N1CCCNCC1` is -29.1

Sure, the documented activity change, negative = inhibition for `Oc1cc(O)cc(/C=C/c2ccc(O)c(O)c2)c1` is -97.4

Sure, the documented activity change, negative = inhibition for `NC(=O)[C@@H](CC1CC1)[C@@H](CCC(F)(F)F)C(=O)N[C@H]1N=C(c2ccccc2)c2cccc(F)c2NC1=O` is -2.84

Sure, the documented activity change, negative = inhibition for `Cc1ccc2nc(NC(=O)CSc3nc4c(c(=O)n3-c3ccccc3)SCC4)sc2c1` is -16.9

Sure, the documented activity change, negative = inhibition for `COc1cc(F)c(C(C)C)cc1-c1ccc(C(F)(F)F)cc1CN1C(=O)O[C@H](c2cc(C(F)(F)F)cc(C(F)(F)F)c2)[C@@H]1C` is -5.3

Sure, the documented activity change, negative = inhibition for Cc1sc2c(c1C)C(c1ccc(Cl)cc1)=NC(CC(=O)Nc1ccc(O)cc1)c1nnc(C)n1-2 (stereo unspecified) is -87.5

----------
- Protocol Text: qHTS for Inhibitors of the Functional Ribonucleoprotein Complex (vRNP) of Lymphocytic Choriomeningitis Arenaviruses (LCMV): Viability assay - alamar blue signal for LCMV Primary Screen (AID 1347085); note: nearly all actives have a fitted effect of over 80% in size
- Condition Details: alamar blue viability counter-screen, LCMV vRNP screen cells; series mostly up to 57.5 µM
Results filed as inconclusive are left out. The source made the active and inactive calls. Calls follow the shape of the full dose curve; tested in HEK293 reporter line.

| Compound Structure | outcome |
| --- | --- |
| COc1ccccc1N1CCN(CCN(C(=O)c2ccc(F)cc2)c2ccccn2)CC1 | inactive |
| CCOC(=O)C=C[C@H](C[C@@H]1CCNC1=O)NC(=O)[C@@H](CC(=O)[C@@H](NC(=O)c1cc(C)on1)C(C)C)Cc1ccc(F)cc1 | inactive |
| CCCC(=O)OCC | inactive |

----------
- Protocol Text: qHTS for Inhibitors of the Functional Ribonucleoprotein Complex (vRNP) of Lymphocytic Choriomeningitis Arenaviruses (LCMV): Viability assay - alamar blue signal for LCMV Primary Screen (AID 1347085); note: nearly all actives have a fitted effect of over 80% in size
- Condition Details: alamar blue viability counter-screen, LCMV vRNP screen cells; series mostly up to 57.5 µM
Records with an inconclusive call do not appear. Activity calls are given as the source filed them. Calls follow the shape of the full dose curve; tested in HEK293 reporter line.
Your answer must be one of the following: YES (active), NO (inactive)

Take a look at these entries with their results.
| Compound | Assigned Category |
| --- | --- |
| C=C1C(O)C[C@H]2C(=C)CCC3[C@H](OC(=O)[C@]3(O)CO)[C@@H]12 (some centres not stated) | NO |
| CC(N[C@H]1CCCC[C@H]1NC(=O)c1ccc(Cl)cc1)c1cccc2ccccc12 (some centres not stated) | YES |
| O=c1[nH]c(=O)n(C2CCCO2)cc1F (configuration not stated) | NO |
| COc1c(N2C[C@@H]3CCCN[C@H]3C2)c(F)cc2c(=O)c(C(=O)O)cn(C3CC3)c12 | NO |
| CN1CC(=O)NC1=NC(=O)Nc1cccc(Cl)c1 | NO |
| c1csc(-c2ccc(-c3cccs3)s2)c1 | NO |

Q: // param item: O=C1c2cc(CO)cc(O)c2C(=O)c2c(O[C@@H]3OC(CO)[C@@H](O)[C@@H](O)[C@@H]3O)cccc21 (some centres not stated) ; yields the recorded call
A: NO

Q: // param item: `CCCCCCCC(=O)O` ; yields the recorded call
A: NO

Q: // param item: CC(C)(O)c1ccc2c(c1)CCC1C(C)(C(=O)O)CCCC21C (configuration not stated) ; yields the recorded call
A: NO

Q: // param item: `O=C(NCCCCN1CCOCC1)c1cc2ccccc2o1` ; yields the recorded call
A: NO

Q: // param item: `O=Nc1c(-c2c(O)[nH]c3cc(Br)ccc23)[nH]c2ccccc12` ; yields the recorded call
A: NO

Q: // param item: `COc1cc2c(cc1O)CC[n+]1cc3c(OC)c(OC)ccc3cc1-2` ; yields the recorded call
A: NO

----------
- Tested on: NIH3T3
- Protocol Text: Cytotoxic Profiling of Annotated Libraries Using Quantitative High-Throughput Screening (AID 1296008); note: % is set by controls: 0 for no effect and ±100 for the full control effect; nearly all actives have a fitted effect of over 60% in size
- Condition Details: Five cell lines viability, CellTiter-Glo ATP luminescence, 48-72 h; stronger effect = lower value
Results filed as inconclusive are left out.
Attribute Measured: max response (%)
Field: numeric (%). Do not append units.

| Molecule | Experimental Target | Unit Abbreviation | Number |
| --- | --- | --- | --- |
| COC(=O)[C@]12CCCC(C)(C)C1CCc1cc(C(C)C)c(O)c(O)c12 (stereo partly specified) | NIH3T3 | % | 2.35 |
| C[C@@H]1CCC2[C@@H](C)C(=O)OC3O[C@@]4(C)CCC1[C@]32OO4 (stereo partly specified) | NIH3T3 | % | -13.5 |
| C[C@H]1O[C@@H](n2cnc3c(N)ncnc32)C[C@@H]1O | NIH3T3 | % | 1.47 |
| CC1=CC2/C=C(\C)CCCC(O)/C=C/C(=O)OC23C(=O)NC(CC(C)C)C3C1C (stereo unspecified) | NIH3T3 | % | 1.49 |
| COc1ccc2c3c([nH]c2c1)C(C=C(C)C)N1C(=O)C2CCCN2C(=O)C1C3 (stereo unspecified) | NIH3T3 | % | -20.2 |
| CCCN(CCC)CCc1ccc(OC)c(OCCc2ccccc2)c1 | NIH3T3 | % | 1.81 |
| c1cncc(OC[C@@H]2CCN2)c1 | NIH3T3 | % | -2.03 |
| CC12CCC3C(C1)c1c(cc(O)c(C(=O)c4ccccc4)c1OC3(C)C)O2 (stereo unspecified) | NIH3T3 | % | 3.12 |

Sure, the documented max response for `CCOC(=O)Nc1ccc(NCc2c(C)cc(C)cc2C)cc1N` is 0.149

Sure, the documented max response for `Cc1c(N[C@@H](c2nnc(-c3ccc(C#N)cc3)o2)[C@H](C)O)ccc(C#N)c1Cl` is 4.88

Sure, the documented max response for CO[C@@H]1C[C@H](O[C@H]2CC[C@@]3(C)C(CCC4C3CC[C@]3(C)[C@@H](C5=CC(=O)OC5)[C@@H](OC(C)=O)CC43O)C2)O[C@H](C)[C@@H]1O[C@H]1O[C@H](CO[C@@H]2O[C@H](CO)[C@@H](O)[C@H](O)[C@H]2O)[C@@H](O)[C@H](O)[C@H]1O (stereo partly specified) is -8.42

----------
- Protocol Text: P-glycoprotein substrates identified in KB-8-5-11 adenocarcinoma cell line, qHTS therapeutic library screen (AID 1346987); note: nearly all actives have a fitted effect of over 65% in size
- Condition Details: KB-8-5-11 (P-gp overexpressing) viability, CellTiter-Glo, 72 h; series mostly up to 44.5 µM
Results filed as inconclusive are left out. Calls of active or inactive are those of the source. The call rests on the fitted dose curve; in most records, active means well fitted inhibition curve with a large enough effect; inconclusive means small, poorly fitted or top-dose-only effect; inactive means flat fitted curve, though single readings scatter.
Your answer must be one of the following: class 1 (active), class 0 (inactive)

Take a look at these entries with their results.
| Compound Structure | Assigned Category |
| --- | --- |
| CCCCn1cc(C(=O)c2cccc3ccccc23)c2ccccc21 | class 0 |
| CCOc1cc(C=O)ccc1O | class 0 |

We next turn to a different compound, shown below.
Q: // param item: `CC(C)[C@H]1OC(=O)[C@H](Cc2ccccc2)N(C)C(=O)[C@@H](C(C)C)OC(=O)[C@H](Cc2ccccc2)N(C)C(=O)[C@@H](C(C)C)OC(=O)[C@H](Cc2ccccc2)N(C)C1=O` ; yields the recorded call
A: class 1

----------
- Experimental Target: DNA dC->dU-editing enzyme APOBEC-3G (Homo sapiens)
- Protocol Text: qHTS for inhibitors of Vif-A3G interactions: Validation (AID 588379)
- Condition Details: Vif-A3G protein interaction assay; series mostly up to 46.1 µM
The source made the active and inactive calls. The call rests on the fitted dose curve; in most records, active means well fitted inhibition curve with a large enough effect; inconclusive means small, poorly fitted or top-dose-only effect; inactive means flat fitted curve, though single readings scatter.
Your answer must be one of the following: active, inactive

Take a look at these entries with their results.
| Compound Structure | Assigned Category |
| --- | --- |
| COc1ccc2c3c([nH]c2c1)C(C)=NCC3 | inactive |
| CN1C(=O)COc2c(C(=O)N[C@@H]3CN4CCC3CC4)cc(Cl)cc21 | inactive |
| COc1ccn(C)c(=O)c1C#N | inactive |

Q: // param item: `CN1Cc2ccccc2[C@@H]2c3cccc4[nH]cc(c34)C[C@H]21` ; yields the recorded call
A: active

Q: // param item: `CC(C)(c1ccc(OC[C@@H]2CO2)cc1)c1ccc(OC[C@H]2CO2)cc1` ; yields the recorded call
A: inactive

Q: // param item: `NC[C@H](CC(=O)O)c1ccc(Cl)cc1` ; yields the recorded call
A: inactive

Q: // param item: `C[C@@H]1O[C@H](O[C@@H]2C[C@@H](O)[C@]3(CO)[C@H]4[C@H](O)C[C@]5(C)[C@@H](C6=CC(=O)OC6)CC[C@@]5(O)[C@@H]4CC[C@]3(O)C2)[C@@H](O)[C@H](O)[C@H]1O` ; yields the recorded call
A: inactive

Q: // param item: `CS(=O)(=O)Nc1ccc(Cc2noc(-c3ccc4[nH]cc(CCN)c4c3)n2)cc1` ; yields the recorded call
A: inactive

The measurements presented in this section are drawn from PubChem BioAssay (NCATS).
